method-description: in vivo
assay-setup: rat, 1 mg/kg
experimental-endpoint: half-life (h)

1) CNC(=O)C(c1ccc(F)cc1)N1CCC(CCN2[C@@H]3CC[C@H]2C[C@@H](n2c(C)nc4ccccc42)C3)(c2cccc(F)c2)CC1 (stereo partly specified)    6.1

----------
method-description: in vivo
assay-setup: rat, 1 mg/kg
Listed below: clearance values for each entry.
experimental-endpoint: clearance (mL/min/kg)

1. Cc1nc2ccccc2n1[C@H]1C[C@H]2CC[C@@H](C1)N2CCC1(c2ccccc2)CCN(C(C(=O)O)c2ccccc2)CC1 (some centres not stated)    117
2. CNC(=O)C(c1ccc(F)cc1)N1CCC(CCN2[C@@H]3CC[C@H]2C[C@@H](n2c(C)nc4ccccc42)C3)(c2cccc(F)c2)CC1 (some centres not stated)    43
